Details: in methyl acetate, 308.15 K
PROPERTY NAME: solubility (mole fraction)

MOLECULAR STRING: CC1(C)S[C@@H]2[C@H](NC(=O)[C@H](NC(=O)N3CCNC3=O)c3ccccc3)C(=O)N2[C@H]1C(=O)O
VAL: 0.000758

---

Details: in acetone, 318.15 K
PROPERTY NAME: solubility (mole fraction)

MOLECULAR STRING: CC1(C)S[C@@H]2[C@H](NC(=O)[C@H](NC(=O)N3CCNC3=O)c3ccccc3)C(=O)N2[C@H]1C(=O)O
VAL: 0.00192

---

Conditions: in methanol, 288.15 K
PROPERTY NAME: solubility (mole fraction)

MOLECULAR STRING: CC1(C)S[C@@H]2[C@H](NC(=O)[C@H](NC(=O)N3CCNC3=O)c3ccccc3)C(=O)N2[C@H]1C(=O)O
VAL: 0.000403

---

Details: in methyl acetate, 288.15 K
PROPERTY NAME: solubility (mole fraction)

MOLECULAR STRING: CC1(C)S[C@@H]2[C@H](NC(=O)[C@H](NC(=O)N3CCNC3=O)c3ccccc3)C(=O)N2[C@H]1C(=O)O
PROPERTY NAME: solubility (mole fraction)
VAL: 0.000372

---

Conditions: in acetonitrile, 308.15 K

MOLECULAR STRING: CC1(C)S[C@@H]2[C@H](NC(=O)[C@H](NC(=O)N3CCNC3=O)c3ccccc3)C(=O)N2[C@H]1C(=O)O
solubility (mole fraction): 0.00108

---

Conditions: in methanol, 303.15 K
PROPERTY NAME: solubility (mole fraction)

MOLECULAR STRING: CC1(C)S[C@@H]2[C@H](NC(=O)[C@H](NC(=O)N3CCNC3=O)c3ccccc3)C(=O)N2[C@H]1C(=O)O
PROPERTY NAME: solubility (mole fraction)
VAL: 0.000728

---

Conditions: in acetone, 278.15 K

MOLECULAR STRING: CC1(C)S[C@@H]2[C@H](NC(=O)[C@H](NC(=O)N3CCNC3=O)c3ccccc3)C(=O)N2[C@H]1C(=O)O
solubility (mole fraction): 0.000492

---

Conditions: in acetonitrile, 288.15 K

MOLECULAR STRING: CC1(C)S[C@@H]2[C@H](NC(=O)[C@H](NC(=O)N3CCNC3=O)c3ccccc3)C(=O)N2[C@H]1C(=O)O
solubility (mole fraction): 0.000643

---

Conditions: in methyl acetate, 278.15 K

MOLECULAR STRING: CC1(C)S[C@@H]2[C@H](NC(=O)[C@H](NC(=O)N3CCNC3=O)c3ccccc3)C(=O)N2[C@H]1C(=O)O
solubility (mole fraction): 0.00027

---

Conditions: in THF, 313.15 K
PROPERTY NAME: solubility (mole fraction)

MOLECULAR STRING: CC1(C)S[C@@H]2[C@H](NC(=O)[C@H](NC(=O)N3CCNC3=O)c3ccccc3)C(=O)N2[C@H]1C(=O)O
VAL: 0.00218

---

Conditions: in isopropanol, 293.15 K

MOLECULAR STRING: CC1(C)S[C@@H]2[C@H](NC(=O)[C@H](NC(=O)N3CCNC3=O)c3ccccc3)C(=O)N2[C@H]1C(=O)O
solubility (mole fraction): 0.000162

---

Settings: in isopropanol, 313.15 K
PROPERTY NAME: solubility (mole fraction)

MOLECULAR STRING: CC1(C)S[C@@H]2[C@H](NC(=O)[C@H](NC(=O)N3CCNC3=O)c3ccccc3)C(=O)N2[C@H]1C(=O)O
PROPERTY NAME: solubility (mole fraction)
VAL: 0.000376

---

Conditions: in acetone, 298.15 K
PROPERTY NAME: solubility (mole fraction)

MOLECULAR STRING: CC1(C)S[C@@H]2[C@H](NC(=O)[C@H](NC(=O)N3CCNC3=O)c3ccccc3)C(=O)N2[C@H]1C(=O)O
VAL: 0.000919

---

Conditions: in ethyl acetate, 313.15 K
PROPERTY NAME: solubility (mole fraction)

MOLECULAR STRING: CC1(C)S[C@@H]2[C@H](NC(=O)[C@H](NC(=O)N3CCNC3=O)c3ccccc3)C(=O)N2[C@H]1C(=O)O
PROPERTY NAME: solubility (mole fraction)
VAL: 0.000528

---

Conditions: in isopropyl acetate, 303.15 K

MOLECULAR STRING: CC1(C)S[C@@H]2[C@H](NC(=O)[C@H](NC(=O)N3CCNC3=O)c3ccccc3)C(=O)N2[C@H]1C(=O)O
solubility (mole fraction): 0.00013

---

Conditions: in methyl acetate, 303.15 K
PROPERTY NAME: solubility (mole fraction)

MOLECULAR STRING: CC1(C)S[C@@H]2[C@H](NC(=O)[C@H](NC(=O)N3CCNC3=O)c3ccccc3)C(=O)N2[C@H]1C(=O)O
VAL: 0.000651

---

Conditions: in ethanol, 288.15 K
PROPERTY NAME: solubility (mole fraction)

MOLECULAR STRING: CC1(C)S[C@@H]2[C@H](NC(=O)[C@H](NC(=O)N3CCNC3=O)c3ccccc3)C(=O)N2[C@H]1C(=O)O
PROPERTY NAME: solubility (mole fraction)
VAL: 0.000954

---

Conditions: in ethanol, 293.15 K

MOLECULAR STRING: CC1(C)S[C@@H]2[C@H](NC(=O)[C@H](NC(=O)N3CCNC3=O)c3ccccc3)C(=O)N2[C@H]1C(=O)O
solubility (mole fraction): 0.00113

---

Conditions: in acetonitrile, 293.15 K

MOLECULAR STRING: CC1(C)S[C@@H]2[C@H](NC(=O)[C@H](NC(=O)N3CCNC3=O)c3ccccc3)C(=O)N2[C@H]1C(=O)O
solubility (mole fraction): 0.000757

---

Settings: in methanol, 308.15 K
PROPERTY NAME: solubility (mole fraction)

MOLECULAR STRING: CC1(C)S[C@@H]2[C@H](NC(=O)[C@H](NC(=O)N3CCNC3=O)c3ccccc3)C(=O)N2[C@H]1C(=O)O
VAL: 0.000948

---

Conditions: in THF, 278.15 K

MOLECULAR STRING: CC1(C)S[C@@H]2[C@H](NC(=O)[C@H](NC(=O)N3CCNC3=O)c3ccccc3)C(=O)N2[C@H]1C(=O)O
solubility (mole fraction): 0.00106

---

Conditions: in isopropanol, 308.15 K

MOLECULAR STRING: CC1(C)S[C@@H]2[C@H](NC(=O)[C@H](NC(=O)N3CCNC3=O)c3ccccc3)C(=O)N2[C@H]1C(=O)O
solubility (mole fraction): 0.000289

---

Settings: in ethanol, 323.15 K

MOLECULAR STRING: CC1(C)S[C@@H]2[C@H](NC(=O)[C@H](NC(=O)N3CCNC3=O)c3ccccc3)C(=O)N2[C@H]1C(=O)O
solubility (mole fraction): 0.00368

---

Conditions: in isopropyl acetate, 293.15 K
PROPERTY NAME: solubility (mole fraction)

MOLECULAR STRING: CC1(C)S[C@@H]2[C@H](NC(=O)[C@H](NC(=O)N3CCNC3=O)c3ccccc3)C(=O)N2[C@H]1C(=O)O
PROPERTY NAME: solubility (mole fraction)
VAL: 0.000102

---

Conditions: in methyl acetate, 293.15 K
PROPERTY NAME: solubility (mole fraction)

MOLECULAR STRING: CC1(C)S[C@@H]2[C@H](NC(=O)[C@H](NC(=O)N3CCNC3=O)c3ccccc3)C(=O)N2[C@H]1C(=O)O
VAL: 0.000463

---

Conditions: in isopropanol, 298.15 K

MOLECULAR STRING: CC1(C)S[C@@H]2[C@H](NC(=O)[C@H](NC(=O)N3CCNC3=O)c3ccccc3)C(=O)N2[C@H]1C(=O)O
solubility (mole fraction): 0.000196

---

Conditions: in isopropyl acetate, 323.15 K

MOLECULAR STRING: CC1(C)S[C@@H]2[C@H](NC(=O)[C@H](NC(=O)N3CCNC3=O)c3ccccc3)C(=O)N2[C@H]1C(=O)O
solubility (mole fraction): 0.000219

---

Details: in THF, 298.15 K
PROPERTY NAME: solubility (mole fraction)

MOLECULAR STRING: CC1(C)S[C@@H]2[C@H](NC(=O)[C@H](NC(=O)N3CCNC3=O)c3ccccc3)C(=O)N2[C@H]1C(=O)O
VAL: 0.00164

---

Details: in ethanol, 308.15 K
PROPERTY NAME: solubility (mole fraction)

MOLECULAR STRING: CC1(C)S[C@@H]2[C@H](NC(=O)[C@H](NC(=O)N3CCNC3=O)c3ccccc3)C(=O)N2[C@H]1C(=O)O
VAL: 0.00197

---

Conditions: in THF, 303.15 K

MOLECULAR STRING: CC1(C)S[C@@H]2[C@H](NC(=O)[C@H](NC(=O)N3CCNC3=O)c3ccccc3)C(=O)N2[C@H]1C(=O)O
solubility (mole fraction): 0.00178

Origin of values: BigSolDB 2.1
